Overview of recorded solubility kinetic for various molecules
Experiment: Kinetic aqueous solubility in pH 7.4 50 mM phosphate buffer
Format: physicochemical
Settings: read-out: Kinetic_solubility

| Molecule | solubility kinetic |
| --- | --- |
| COc1cccc(Oc2cccc(N3CCCCC3)c2CN/C(N)=N/C(=O)c2ccc(C[C@H](N)C(=O)O)cc2)c1 | > 40 µM |

Record summary for Cc1cccc(N2CCCCCC2)c1CN/C(N)=N/C(=O)c1ccc(C[C@H](N)C(=O)O)cc1 : reported solubility kinetic = 40 µM

Just so you know, measured solubility kinetic for N/C(=N\C(=O)c1ccc(C[C@H](N)C(=O)O)cc1)NCc1cc(-c2ccccc2)ccc1N1CCCCC1 came out at 16 µM

# solubility kinetic (molecule: Nc1nc(OC(c2ccc(-c3cccc(F)c3)cc2)C(F)(F)F)cc(-c2ccc(C[C@H](N)C(=O)O)cc2)n1 (some centres undefined) ) is 2.1 µM
